The measurements presented in this section are drawn from ChEMBL document CHEMBL1141713.

# experiment: Toxicity against human NCI-H460 cells assessed as growth inhibition by broth microdilution method
# Assay type: cell-based
pIC50: −log10 of the molar value.
# pIC50 per entry

| smiles str | pIC50 |
| --- | --- |
| O=P(O)(O)C(Nc1cccc(-c2ccc(F)cc2F)c1)P(=O)(O)O | < 3.52 |
| COCc1cccc(NC(P(=O)(O)O)P(=O)(O)O)c1 | < 3.52 |

In the following, a different compound is considered.
Exam item: # input compound: `O=P(O)(O)C(Nc1ccc(Cc2ccccc2)cc1)P(=O)(O)O` ; wanted: its pIC50
Marked response: < 4.00
